Values compiled from the supplement of paper PMC10567573.

Assay: protein stability index of a GFP-peptide fusion (GPS, HEK-293T) (PSI 1-6); higher = more stable;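 note: 24-mer peptide tiles fused after GFP, lentivirally expressed, FACS-sorted into six equal bins by GFP/DsRed ratio, decoded by Illumina sequencing, PSI is the read-weighted mean bin number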
Settings: treatment: DMSO; c terminus: a fixed tail appended
sequences and their reported protein stability index
Returns: the value as a bare number; no unit string appended.

Before answering, review these 5 worked examples.
{"columns": ["CHAIN", "ASSAY_VALUE"],
 "data": [
  ["SWSDGMAFCALVHSFFPDAFDYNS [SMTNL2]", 2.95],
  ["QFPYVEFTGRDSITCLTCQGTGYI [TMEM106C]", 2.93],
  ["FMAYEQIKRLVGSDQETLRIHERL [SLC25A25]", 3.08],
  ["KPAEYGYVSLGRLGAAKGALHPGC [CEBPB]", 2.94],
  ["NLQSLINNEIPDCYTFSVLITFDN [MCOLN1]", 2.93]
]}

Ask: Quick one: protein stability index for DCCQVSAPNRFFQKLNVFKNFIGL [NLN] ?
Reply: 2.09

Ask: Try the sequence TGVPGSPGHIGPPGPTGPKGISGH [EMID1]
Reply: 4.33

Ask: Try the sequence EAGAPGEEDIQGPTKADTEKWAEG [CHGB]
Reply: 5.64
